The values you see were collected from patent US11931424B2.

Items are presented alongside their recorded Loewe Volume.
Test system: panel of breast cancer cell lines
ASSAY INFO: Compound A with targeted agents and chemotherapies, 72-hour in vitro proliferation assays
Assay type: cell-based
PROTOCOL CONDITIONS: HCC70; compound A × partner, 72-hour proliferation

Bench note: what Loewe Volume did CCOc1cc2ncc(C#N)c(Nc3ccc(OCc4ccccn4)c(Cl)c3)c2cc1NC(=O)/C=C/CN(C)C show? 21.51

What Loewe Volume value was documented for this molecule, CC1(C)CCC(CN2CCN(c3ccc(C(=O)NS(=O)(=O)c4ccc(NCC5CCOCC5)c([N+](=O)[O-])c4)c(Oc4cnc5[nH]ccc5c4)c3)CC2)=C(c2ccc(Cl)cc2)C1 ? 15.44

What does the record list as Loewe Volume for CCN1CCN(Cc2ccc(Nc3ncc(F)c(-c4cc(F)c5nc(C)n(C(C)C)c5c4)n3)nc2)CC1 ? 8.33

Which Loewe Volume is listed for O=C(c1cc(Cc2n[nH]c(=O)c3ccccc23)ccc1F)N1CCN(C(=O)C2CC2)CC1 ? 6.54

----------
# maps each entry to its Loewe Volume
Tested on: panel of breast cancer cell lines
ASSAY INFO: Compound A with targeted agents and chemotherapies, 72-hour in vitro proliferation assays
Format: cell-based
PROTOCOL CONDITIONS: MDA-MB-175-VII cells; Compound A × partner agent; 72-hour proliferation

GET /values?readout=Loewe Volume&item= C[C@]12CC[C@@H]3c4ccc(O)cc4C[C@@H](CCCCCCCCC[S+]([O-])CCCC(F)(F)C(F)(F)F)[C@H]3[C@@H]1CC[C@@H]2O (some centres unmarked) [Fulvestrant] 10.58

Item under review: N.N.[Cl][Pt][Cl] [Cisplatin] . Reported Loewe Volume? 2.49

GET /values?readout=Loewe Volume&item= CC(=O)O[C@@]12CO[C@@H]1C[C@H](O)[C@@]1(C)C(=O)[C@H](O)C3=C(C)[C@@H](OC(=O)[C@H](O)[C@@H](NC(=O)OC(C)(C)C)c4ccccc4)C[C@@](O)([C@@H](OC(=O)c4ccccc4)[C@H]21)C3(C)C [Docetaxel] 12.14

Which value of Loewe Volume has been reported for N.N.O=C([O-])C1(C(=O)[O-])CCC1.[Pt+2] [Carboplatin] in the records? 12.14

Look at this compound and give its reported Loewe Volume. CO[C@H]1C[C@@H]2CC[C@@H](C)[C@@](O)(O2)C(=O)C(=O)N2CCCC[C@H]2C(=O)O[C@H]([C@H](C)C[C@@H]2CC[C@@H](OCCO)[C@H](OC)C2)CC(=O)[C@H](C)/C=C(\C)[C@@H](O)[C@@H](OC)C(=O)[C@H](C)C[C@H](C)/C=C/C=C/C=C/1C [Everolimus] 4.62

----------
System: panel of breast cancer cell lines
ASSAY INFO: Compound A with targeted agents and chemotherapies, 72-hour in vitro proliferation assays
Type: cell-based
PROTOCOL CONDITIONS: HDQ-P1; compound A × partner, 72-hour proliferation
Counter-ions that a name gives are not always drawn.
Would you mind classing the entries by Bliss Volume? Ranges: Low (below -1), Mid (-1 to below 2), High (2 or more)

MOLECULE	DISCRETE LABEL
Cn1ncnc1[C@H]1c2n[nH]c(=O)c3cc(F)cc(c23)N[C@@H]1c1ccc(F)cc1 [BMN 673]	Mid
N.N.[Cl][Pt][Cl] [Cisplatin]	Mid
CC1(C)CCC(CN2CCN(c3ccc(C(=O)NS(=O)(=O)c4ccc(NCC5CCOCC5)c([N+](=O)[O-])c4)c(Oc4cnc5[nH]ccc5c4)c3)CC2)=C(c2ccc(Cl)cc2)C1 [ABT-199]	Mid

Determine which band this molecule sits in: Nc1ccn([C@@H]2O[C@H](CO)[C@@H](O)C2(F)F)c(=O)n1 [Gemcitabine Hydrochloride] Low

// return the class label for O=C(c1cc(Cc2n[nH]c(=O)c3ccccc23)ccc1F)N1CCN(C(=O)C2CC2)CC1 [Olaparib] High

Assign a bin to Cc1c(-c2ccc(N3CCc4cccc(C(=O)Nc5nc6ccccc6s5)c4C3)nc2C(=O)O)cnn1CC12CC3CC(CC(C3)C1)C2 [Compound A-1331852] High

For CC(C)NC[C@@H](C(=O)N1CCN(c2ncnc3c2[C@H](C)C[C@H]3O)CC1)c1ccc(Cl)cc1 [GDC-0068] , which Bliss Volume bin applies? Low
